- ASSAY: Multiple ascending dose
- Assay type: in vivo, human
- EXPERIMENTAL PARAMETERS: human, plasma, oral, 50 ug, Cmax,ss, 50 µg BID, steady state, n = 6, mean (SD)
PROPERTY NAME: Cmax (ng/mL)
Answer with a number only, understood to be in ng/mL.

What does the record list as Cmax for O=C(O)COC[C@H]1CC[C@H](COC(=O)N(c2ccccc2)c2ccc(Cl)cc2)CC1 ? 4.43

----------
- ASSAY: Multiple ascending dose
- Assay type: in vivo, human
- EXPERIMENTAL PARAMETERS: human, plasma, oral, 20 ug, Cmax,ss, 20 µg BID, steady state, n = 20, mean (SD)
PROPERTY NAME: Cmax

What does the record list as Cmax for O=C(O)COC[C@H]1CC[C@H](COC(=O)N(c2ccccc2)c2ccc(Cl)cc2)CC1 [ralinepag] ? 1.8 ng/mL

----------
- ASSAY: Multiple ascending dose
- Assay type: in vivo, human
- EXPERIMENTAL PARAMETERS: human, plasma, oral, 50 ug, Tmax,ss, 50 µg QD, steady state, n = 16, median (min – max)
PROPERTY NAME: Tmax (h)
Answer with a number only, understood to be in h.

What does the record list as Tmax for O=C(O)COC[C@H]1CC[C@H](COC(=O)N(c2ccccc2)c2ccc(Cl)cc2)CC1 ? 1.25

----------
- ASSAY: Multiple ascending dose
- Assay type: in vivo, human
- EXPERIMENTAL PARAMETERS: human, plasma, oral, 10 ug, Tmax, 10 µg BID, Study Day 1 (non-steady-state), n = 20, median (min–max)
PROPERTY NAME: Tmax
Note to self: number, then unit, no commentary.

What does the record list as Tmax for O=C(O)COC[C@H]1CC[C@H](COC(=O)N(c2ccccc2)c2ccc(Cl)cc2)CC1 ? 1 h

----------
- ASSAY: Single ascending dose
- Assay type: in vivo, human
- EXPERIMENTAL PARAMETERS: both, human, plasma, po, 200 ug
PROPERTY NAME: AUC(0-inf) (ng·h/mL)
Answer with a number only, understood to be in ng·h/mL.

What does the record list as AUC(0-inf) for O=C(O)COC[C@H]1CC[C@H](COC(=O)N(c2ccccc2)c2ccc(Cl)cc2)CC1 ? 103

----------
- ASSAY: Single ascending dose
- Assay type: in vivo, human
- EXPERIMENTAL PARAMETERS: both, human, plasma, po, 30 ug
PROPERTY NAME: Tmax
Note to self: number, then unit, no commentary.

What does the record list as Tmax for O=C(O)COC[C@H]1CC[C@H](COC(=O)N(c2ccccc2)c2ccc(Cl)cc2)CC1 [ralinepag] ? 1 h

----------
- ASSAY: Single ascending dose
- Type: in vivo, human
- EXPERIMENTAL PARAMETERS: both, human, plasma, po, 100 ug
PROPERTY NAME: AUC(0-inf) (ng·h/mL)
Answer with a number only, understood to be in ng·h/mL.

What does the record list as AUC(0-inf) for O=C(O)COC[C@H]1CC[C@H](COC(=O)N(c2ccccc2)c2ccc(Cl)cc2)CC1 ? 42.6

----------
- ASSAY: Multiple ascending dose
- Assay type: in vivo, human
- EXPERIMENTAL PARAMETERS: both, human, plasma, oral
PROPERTY NAME: Half-life

What does the record list as Half-life for O=C(O)COC[C@H]1CC[C@H](COC(=O)N(c2ccccc2)c2ccc(Cl)cc2)CC1 ? 17.5 to 18.4 h
